# system.under.test: Alpha-1D adrenergic receptor (Homo sapiens)
# Sequence (P25100 whole entry): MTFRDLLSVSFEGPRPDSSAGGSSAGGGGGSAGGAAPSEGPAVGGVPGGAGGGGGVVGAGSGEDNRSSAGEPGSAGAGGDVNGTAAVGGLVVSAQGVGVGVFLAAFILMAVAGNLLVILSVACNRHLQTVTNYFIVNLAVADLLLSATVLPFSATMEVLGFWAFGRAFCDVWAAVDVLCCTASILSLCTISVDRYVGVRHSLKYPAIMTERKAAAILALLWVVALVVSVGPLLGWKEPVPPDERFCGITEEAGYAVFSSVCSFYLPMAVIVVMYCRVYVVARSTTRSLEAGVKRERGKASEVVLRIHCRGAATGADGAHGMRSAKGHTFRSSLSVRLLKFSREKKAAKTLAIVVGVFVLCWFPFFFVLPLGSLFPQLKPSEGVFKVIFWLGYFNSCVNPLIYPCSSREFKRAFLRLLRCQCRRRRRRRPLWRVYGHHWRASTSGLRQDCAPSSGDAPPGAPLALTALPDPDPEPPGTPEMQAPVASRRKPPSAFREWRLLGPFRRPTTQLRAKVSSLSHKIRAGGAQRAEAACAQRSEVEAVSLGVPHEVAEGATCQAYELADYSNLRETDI
The label is Satisfied for Ki below 3 nM and Not satisfied for Ki equal to or exceeding 3 nM.

## Task Ki strictly < 3 nM for this molecule? COc1cccc(Cl)c1OCCNCCOc1ccccc1OCc1ccccc1
## Result Satisfied

## Task Ki strictly < 3 nM for this molecule? COc1cccc(OC)c1[S+]([O-])CCNCCOc1ccccc1OCc1ccccc1 (stereo unspecified)
## Result Satisfied

## Task Ki strictly < 3 nM for this molecule? COc1ccccc1OCCNCCOc1ccccc1OCc1ccccc1
## Result Not satisfied

## Task Ki strictly < 3 nM for this molecule? Cc1cccc(C)c1OCCNCCOc1ccccc1OCc1ccccc1
## Result Not satisfied

## Task Ki strictly < 3 nM for this molecule? COc1cccc([N+](=O)[O-])c1OCCNCCOc1ccccc1OCc1ccccc1
## Result Satisfied

Now consider the entry below.
## Task Ki strictly < 3 nM for this molecule? COc1cccc(OC)c1CCCNCCOc1ccccc1OCc1ccccc1
## Result Satisfied

###

# system.under.test: Alpha-1A adrenergic receptor (Homo sapiens)
# Sequence (P35348 whole entry): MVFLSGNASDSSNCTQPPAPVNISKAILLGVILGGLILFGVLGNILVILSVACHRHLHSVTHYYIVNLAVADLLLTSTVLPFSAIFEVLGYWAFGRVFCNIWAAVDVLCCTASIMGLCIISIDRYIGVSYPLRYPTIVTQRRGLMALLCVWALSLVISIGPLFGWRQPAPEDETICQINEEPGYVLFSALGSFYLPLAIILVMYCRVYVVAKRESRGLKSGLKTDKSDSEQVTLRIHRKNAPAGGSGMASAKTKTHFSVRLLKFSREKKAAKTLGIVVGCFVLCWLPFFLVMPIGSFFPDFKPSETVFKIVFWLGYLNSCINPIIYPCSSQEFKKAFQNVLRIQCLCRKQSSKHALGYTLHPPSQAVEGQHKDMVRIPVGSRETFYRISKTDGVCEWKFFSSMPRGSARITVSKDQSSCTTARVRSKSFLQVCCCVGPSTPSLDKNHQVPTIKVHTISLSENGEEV
For each entry below, report its Ki value.
Answers are plain numbers, in nM.

# example entries with known answers
Reported Ki for COc1cccc(OC)c1CCCNCCOc1ccccc1OCc1ccccc1 was 9.77

Reported Ki for CCOc1cccc(OCC)c1OCCNCCOc1ccccc1OCc1ccccc1 was 3.16

Reported Ki for COc1cccc(Cl)c1OCCNCCOc1ccccc1OCc1ccccc1 was 2.51

Reported Ki for COc1cccc(OC)c1SCCNCCOc1ccccc1OCc1ccccc1 was 3.16

Here's the next entry for you.
Reported Ki for Oc1cccc(O)c1OCCNCCOc1ccccc1OCc1ccccc1 was 5.01

###

For each entry below, report its pKb value.
# system.under.test: Alpha-1B adrenergic receptor (Rattus norvegicus)
# Sequence (whole entry): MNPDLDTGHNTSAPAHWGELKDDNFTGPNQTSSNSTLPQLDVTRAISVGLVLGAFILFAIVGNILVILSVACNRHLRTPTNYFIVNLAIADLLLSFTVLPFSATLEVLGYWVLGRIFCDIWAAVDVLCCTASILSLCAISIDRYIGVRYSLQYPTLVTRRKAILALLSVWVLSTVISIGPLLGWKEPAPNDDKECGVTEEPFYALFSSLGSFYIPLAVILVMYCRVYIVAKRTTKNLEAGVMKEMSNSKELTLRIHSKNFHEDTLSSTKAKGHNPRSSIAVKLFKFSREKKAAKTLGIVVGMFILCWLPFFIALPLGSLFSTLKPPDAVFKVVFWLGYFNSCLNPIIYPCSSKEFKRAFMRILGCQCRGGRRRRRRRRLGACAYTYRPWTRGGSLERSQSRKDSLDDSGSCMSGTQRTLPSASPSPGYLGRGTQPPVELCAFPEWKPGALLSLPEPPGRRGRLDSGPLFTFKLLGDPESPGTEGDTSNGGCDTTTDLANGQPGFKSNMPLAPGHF
# assay.summary: Antagonist activity at adrenergic Alpha-1B receptor in Wistar rat spleen assessed as inhibition of […]-indcuced contraction
# Type: functional, tissue-based
Answers are plain numbers.

# example entries with known answers
Reported pKb for COc1cccc([N+](=O)[O-])c1OCCNCCOc1ccccc1OCc1ccccc1 was 8.19

Reported pKb for COc1cccc(OC)c1[S+]([O-])CCNCCOc1ccccc1OCc1ccccc1 (stereo not drawn) was 7.65

Here's the next entry for you.
Reported pKb for COc1cccc(OC)c1OCCNCC1COc2ccccc2O1 (stereo not drawn) was 8.16

###

# system.under.test: UniProt P08908
# Sequence (P08908 whole entry): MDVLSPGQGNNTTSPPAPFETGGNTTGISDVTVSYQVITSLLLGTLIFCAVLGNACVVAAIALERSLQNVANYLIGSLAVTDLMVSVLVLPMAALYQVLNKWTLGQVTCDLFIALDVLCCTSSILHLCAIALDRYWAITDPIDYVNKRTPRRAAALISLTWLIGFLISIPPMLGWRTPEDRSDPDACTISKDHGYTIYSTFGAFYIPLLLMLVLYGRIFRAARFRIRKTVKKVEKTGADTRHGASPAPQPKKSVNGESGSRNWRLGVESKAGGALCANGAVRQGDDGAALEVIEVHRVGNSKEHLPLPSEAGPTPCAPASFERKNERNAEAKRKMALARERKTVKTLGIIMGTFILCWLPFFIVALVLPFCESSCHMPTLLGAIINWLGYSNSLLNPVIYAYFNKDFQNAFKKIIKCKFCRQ
measured.quantity: pKi
One number for each entry, as −log10 of the molar value.

# example entries with known answers
GET /values?item= COc1cccc(OC)c1CCCNCCOc1ccccc1OCc1ccccc1 &system= UniProt P08908 returns pKi: 8.60

GET /values?item= Clc1cccc(Cl)c1OCCNCCOc1ccccc1OCc1ccccc1 &system= UniProt P08908 returns pKi: 7.50

GET /values?item= COc1cccc(C)c1OCCNCCOc1ccccc1OCc1ccccc1 &system= UniProt P08908 returns pKi: 8.40

GET /values?item= CCOc1cccc(OCC)c1OCCNCCOc1ccccc1OCc1ccccc1 &system= UniProt P08908 returns pKi: 7.50

Here's the next entry for you.
GET /values?item= Oc1cccc(O)c1OCCNCCOc1ccccc1OCc1ccccc1 &system= UniProt P08908 returns pKi: 7.90

###

For each entry below, report its pKb value.
# system.under.test: Alpha-1D adrenergic receptor (Rattus norvegicus) (UniProt P23944)
# Sequence (P23944 whole entry): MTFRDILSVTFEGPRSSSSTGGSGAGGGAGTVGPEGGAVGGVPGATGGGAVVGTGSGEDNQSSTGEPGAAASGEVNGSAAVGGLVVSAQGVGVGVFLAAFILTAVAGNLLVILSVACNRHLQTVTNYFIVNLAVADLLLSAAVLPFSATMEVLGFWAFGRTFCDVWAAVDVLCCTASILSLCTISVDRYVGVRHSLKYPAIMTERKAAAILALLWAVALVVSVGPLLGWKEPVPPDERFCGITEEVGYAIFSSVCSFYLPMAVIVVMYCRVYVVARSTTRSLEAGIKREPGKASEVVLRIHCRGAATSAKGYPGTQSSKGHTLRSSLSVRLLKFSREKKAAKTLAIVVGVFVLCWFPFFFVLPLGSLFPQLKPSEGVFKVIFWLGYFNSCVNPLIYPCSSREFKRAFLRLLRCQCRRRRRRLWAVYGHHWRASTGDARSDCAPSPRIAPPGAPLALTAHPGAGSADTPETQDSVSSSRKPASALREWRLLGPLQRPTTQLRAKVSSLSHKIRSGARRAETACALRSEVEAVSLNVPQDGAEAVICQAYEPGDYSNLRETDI
# assay.summary: Antagonist activity at adrenergic Alpha-1D receptor in Wistar rat thoracic aorta assessed as inhibition of (-)-noradrenaline-indcuced contraction
# Type: functional, tissue-based

# example entries with known answers
GET /values?item= COc1cccc([N+](=O)[O-])c1OCCNCCOc1ccccc1OCc1ccccc1 &system= Alpha-1D adrenergic receptor (Rattus norvegicus) (UniProt P23944) returns pKb: 8.92

GET /values?item= CCOc1ccccc1OCCNCCOc1ccccc1OCc1ccccc1 &system= Alpha-1D adrenergic receptor (Rattus norvegicus) (UniProt P23944) returns pKb: 8.35

GET /values?item= COc1cccc(OC)c1SCCNCCOc1ccccc1OCc1ccccc1 &system= Alpha-1D adrenergic receptor (Rattus norvegicus) (UniProt P23944) returns pKb: 9.47

GET /values?item= COc1cccc(OC)c1CCCNCCOc1ccccc1OCc1ccccc1 &system= Alpha-1D adrenergic receptor (Rattus norvegicus) (UniProt P23944) returns pKb: 8.12

GET /values?item= CCOc1cccc(OCC)c1OCCNCCOc1ccccc1OCc1ccccc1 &system= Alpha-1D adrenergic receptor (Rattus norvegicus) (UniProt P23944) returns pKb: 8.03

Continuing:
GET /values?item= COc1cccc(OC)c1[S+]([O-])CCNCCOc1ccccc1OCc1ccccc1 (stereo unspecified) &system= Alpha-1D adrenergic receptor (Rattus norvegicus) (UniProt P23944) returns pKb: 7.49

###

For each entry below, report its pKb value.
# system.under.test: Alpha-1D adrenergic receptor (Rattus norvegicus) (UniProt P23944)
# assay.summary: Antagonist activity at adrenergic Alpha-1D receptor in Wistar rat thoracic aorta assessed as inhibition of (-)-noradrenaline-indcuced contraction
# Assay type: functional, tissue-based
Answers are plain numbers.

# example entries with known answers
Reported pKb for COc1cccc(OC)c1OCCNCCOc1ccccc1OCc1ccccc1 was 9.37

Reported pKb for COc1cccc(C)c1OCCNCCOc1ccccc1OCc1ccccc1 was 8.36

Reported pKb for c1ccc(COc2ccccc2OCCNCCOc2ccccc2)cc1 was 7.32

Hey, can you go through the list below and give me pKb for every item?
1. Oc1cccc(O)c1OCCNCCOc1ccccc1OCc1ccccc1
2. COc1ccccc1OCCNCCOc1ccccc1OCc1ccccc1
3. COc1cccc(OC)c1OCCNCC1COc2ccccc2O1 (centres undefined)
4. Clc1cccc(Cl)c1OCCNCCOc1ccccc1OCc1ccccc1
5. Cc1cccc(C)c1OCCNCCOc1ccccc1OCc1ccccc1
6. COc1cccc(Cl)c1OCCNCCOc1ccccc1OCc1ccccc1

## Result
1. 7.44
2. 8.08
3. 8.8
4. 8.02
5. 7.59
6. 8.74

###

For each entry below, report its pKb value.
# system.under.test: Alpha-1B adrenergic receptor (Rattus norvegicus) (UniProt P15823)
# assay.summary: Antagonist activity at adrenergic Alpha-1B receptor in Wistar rat spleen assessed as inhibition of […]-indcuced contraction
# Assay type: functional, tissue-based
Give bare numbers.

# example entries with known answers
Reported pKb for Oc1cccc(O)c1OCCNCCOc1ccccc1OCc1ccccc1 was 7.02

Reported pKb for CCOc1ccccc1OCCNCCOc1ccccc1OCc1ccccc1 was 7.94

Reported pKb for CCOc1cccc(OCC)c1OCCNCCOc1ccccc1OCc1ccccc1 was 8.57

Reported pKb for COc1cccc(Cl)c1OCCNCCOc1ccccc1OCc1ccccc1 was 7.84

Reported pKb for COc1cccc(OC)c1SCCNCCOc1ccccc1OCc1ccccc1 was 8.57

Reported pKb for COc1cccc(OC)c1OCCNCCOc1ccccc1OCc1ccccc1 was 8.3

Reported pKb for Cc1cccc(C)c1OCCNCCOc1ccccc1OCc1ccccc1 was 7.78

Reported pKb for c1ccc(COc2ccccc2OCCNCCOc2ccccc2)cc1 was 7.74

Reported pKb for COc1cccc(OC)c1CCCNCCOc1ccccc1OCc1ccccc1 was 7.34

Reported pKb for COc1cccc(C)c1OCCNCCOc1ccccc1OCc1ccccc1 was 7.91

Hey, can you go through the list below and give me pKb for every item?
1. Clc1cccc(Cl)c1OCCNCCOc1ccccc1OCc1ccccc1
2. COc1ccccc1OCCNCCOc1ccccc1OCc1ccccc1

## Result
[7.75, 7.89]
